Target: Arg261Gln (R261Q) PAH (Homo sapiens (Human), UniProt P00439, R261Q)
Sequence (P00439 whole entry R261Q): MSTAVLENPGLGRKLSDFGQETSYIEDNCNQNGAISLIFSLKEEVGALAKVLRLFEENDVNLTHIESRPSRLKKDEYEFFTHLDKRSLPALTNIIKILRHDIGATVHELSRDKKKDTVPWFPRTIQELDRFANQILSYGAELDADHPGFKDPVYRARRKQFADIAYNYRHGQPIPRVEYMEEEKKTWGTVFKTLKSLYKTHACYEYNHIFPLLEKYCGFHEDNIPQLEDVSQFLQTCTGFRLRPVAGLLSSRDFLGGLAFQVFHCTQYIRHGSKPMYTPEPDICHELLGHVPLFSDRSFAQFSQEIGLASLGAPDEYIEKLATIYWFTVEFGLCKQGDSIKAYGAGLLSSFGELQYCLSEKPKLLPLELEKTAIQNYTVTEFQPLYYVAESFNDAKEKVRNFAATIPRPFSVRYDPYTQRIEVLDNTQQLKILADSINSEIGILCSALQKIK
Assay: Thermal stability shift assay (DSF)
Assay type: binding
Settings: compound 30 μM (BH4 43 μM); shift of transition midpoint 1 vs NCC
Counter-ions that a name gives are not always drawn.
ENDPOINT_LABEL: ΔTm1 R261Q PAH (°C)
Express your answer in °C, writing the number without its unit.

Return reported ΔTm1 R261Q PAH. Input compound: CCc1cccc2cc(C(O)CNC(C)(C)C)oc12 (stereo not drawn) [Bufuralol HCl] 2.24

Return reported ΔTm1 R261Q PAH. Input compound: CCc1cccc2cc(C(O)CNC(C)(C)C)oc12 (stereo not drawn) [S-Bufuralol HCl] 3.73

Return reported ΔTm1 R261Q PAH. Input compound: C[C@H](O)[C@H](O)[C@H]1CNc2[nH]c(N)nc(=O)c2N1 [BH4, 6R-L-erythro-5,6,7,8-tetrahydrobiopterin] 2.54

Return reported ΔTm1 R261Q PAH. Input compound: Nc1nc(N)c2nc(-c3ccccc3)c(N)nc2n1 [Triamterene, 2,4,7-triamino-6-phenylpteridine] 2.21

Return reported ΔTm1 R261Q PAH. Input compound: CCC[S+]([O-])c1ccc2[nH]c(NC(=O)OC)nc2c1 (stereo not drawn) [Ricobendazole] 2.19

Return reported ΔTm1 R261Q PAH. Input compound: CN1CCc2cc3c(cc2C1O)OCO3 (stereo not drawn) [Hydrastinine HCl] 2.46

###

Biological target: Arg261Gln (R261Q) PAH (Homo sapiens (Human), UniProt P00439, R261Q)
Experiment: Thermal stability shift assay (DSF)
Type: binding
Settings: compound 30 μM (BH4 43 μM); shift of transition midpoint 2 vs NCC
Where a name gives a salt, the structure may show the parent alone.
ENDPOINT_LABEL: ΔTm2 R261Q PAH (°C)
Express your answer in °C, writing the number without its unit.

Return reported ΔTm2 R261Q PAH. Input compound: CCC[S+]([O-])c1ccc2[nH]c(NC(=O)OC)nc2c1 (centres unmarked) 3.39

Return reported ΔTm2 R261Q PAH. Input compound: CCc1cccc2cc(C(O)CNC(C)(C)C)oc12 (centres unmarked) [S-Bufuralol HCl] 0.92

Return reported ΔTm2 R261Q PAH. Input compound: CN1CCc2cc3c(cc2C1O)OCO3 (centres unmarked) [Hydrastinine HCl] 0.04

Return reported ΔTm2 R261Q PAH. Input compound: C[C@H](O)[C@H](O)[C@H]1CNc2[nH]c(N)nc(=O)c2N1 [BH4, 6R-L-erythro-5,6,7,8-tetrahydrobiopterin] 12.17

Return reported ΔTm2 R261Q PAH. Input compound: Nc1nc(N)c2nc(-c3ccccc3)c(N)nc2n1 2.82

###

Target: wild-type PAH (Homo sapiens (Human))
Sequence (P00439 whole entry): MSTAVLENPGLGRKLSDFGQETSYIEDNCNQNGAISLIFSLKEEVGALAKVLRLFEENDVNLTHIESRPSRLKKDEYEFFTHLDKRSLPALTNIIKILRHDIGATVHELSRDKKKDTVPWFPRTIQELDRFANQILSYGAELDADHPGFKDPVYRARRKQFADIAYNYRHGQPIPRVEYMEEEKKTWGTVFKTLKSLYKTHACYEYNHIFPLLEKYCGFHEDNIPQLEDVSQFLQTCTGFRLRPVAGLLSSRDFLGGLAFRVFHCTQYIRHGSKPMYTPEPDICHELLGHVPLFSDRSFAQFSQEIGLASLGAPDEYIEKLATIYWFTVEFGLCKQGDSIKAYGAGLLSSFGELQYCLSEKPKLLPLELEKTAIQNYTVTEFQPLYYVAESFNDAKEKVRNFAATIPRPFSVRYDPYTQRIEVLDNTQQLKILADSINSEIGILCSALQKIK
Assay: Thermal stability shift assay (DSF)
Type: binding
Details: compound 30 μM (BH4 43 μM); shift of transition midpoint 2 vs NCC
Where a name gives a salt, the structure may show the parent alone.
ENDPOINT_LABEL: ΔTm2 WT PAH (°C)
Express your answer in °C, writing the number without its unit.

Return reported ΔTm2 WT PAH. Input compound: CCc1cccc2cc(C(O)CNC(C)(C)C)oc12 (stereo not drawn) [Bufuralol HCl] −0.09

Return reported ΔTm2 WT PAH. Input compound: CCC[S+]([O-])c1ccc2[nH]c(NC(=O)OC)nc2c1 (stereo not drawn) 2.57

Return reported ΔTm2 WT PAH. Input compound: CN1CCc2cc3c(cc2C1O)OCO3 (stereo not drawn) [Hydrastinine HCl] 6.10

Return reported ΔTm2 WT PAH. Input compound: C[C@H](O)[C@H](O)[C@H]1CNc2[nH]c(N)nc(=O)c2N1 [BH4, 6R-L-erythro-5,6,7,8-tetrahydrobiopterin] 1.88

Return reported ΔTm2 WT PAH. Input compound: CCc1cccc2cc(C(O)CNC(C)(C)C)oc12 (stereo not drawn) [S-Bufuralol HCl] 0.24

Return reported ΔTm2 WT PAH. Input compound: Nc1nc(N)c2nc(-c3ccccc3)c(N)nc2n1 3.23
